- Tested on: SYF/c-Src527F cell line
- methodSummary: Cell proliferation assay (MTT assay), GI50
- Format: cell-based
- runParameters: Mus musculus, 72 h, 3 days incubation
readoutType: log10 GI50 (log10 of the value in µM)
// do not treat as linear: log10 of GI50, unit µM

Note down log10 GI50 recorded for c1ccc(CCSCc2ccc(-c3ccccc3)cc2)cc1 [Compound 135] 1.27

---

- System: SYF/c-Src527F cell line
- methodSummary: Cell proliferation assay (MTT assay), GI50
- Assay type: cell-based
- runParameters: Mus musculus, 72 h, 3 days incubation
readoutType: GI50 (nM)
Field format: number, assumed nM, no unit text.

Reference set, count: 4
# molecule, studyTarget, GI50 / nM
records = [
    ("O=C(Cc1ccc(-c2ccc(OCCN3CCOCC3)cc2)cn1)NCc1ccccc1 [drawing 587]", "SYF/c-Src527F cell line", 23),
    ("O=C(NCCc1ccc(-c2ccccc2)cc1)c1ccccc1", "SYF/c-Src527F cell line", 3100),
    ("O=C(Cc1ccccc1)NCc1ccc(-c2ccccc2)cc1", "SYF/c-Src527F cell line", 750),
    ("[O-][S+](CCc1ccccc1)Cc1ccc(-c2ccccc2)cc1 (centres unmarked)", "SYF/c-Src527F cell line", 970),
]

Now consider a different molecule.
Note down GI50 recorded for O=S(=O)(Cc1ccc(-c2ccccc2)cc1)NCc1ccccc1 1400

---

- studyTarget: JAK1 (Homo sapiens, UniProt P23458)
- Construct: U-937 cells, histiocytic lymphoma cell line; endogenous in cells; host or cells: U-937 (ATCC CRL-1593.2)
- Sequence (P23458 whole entry): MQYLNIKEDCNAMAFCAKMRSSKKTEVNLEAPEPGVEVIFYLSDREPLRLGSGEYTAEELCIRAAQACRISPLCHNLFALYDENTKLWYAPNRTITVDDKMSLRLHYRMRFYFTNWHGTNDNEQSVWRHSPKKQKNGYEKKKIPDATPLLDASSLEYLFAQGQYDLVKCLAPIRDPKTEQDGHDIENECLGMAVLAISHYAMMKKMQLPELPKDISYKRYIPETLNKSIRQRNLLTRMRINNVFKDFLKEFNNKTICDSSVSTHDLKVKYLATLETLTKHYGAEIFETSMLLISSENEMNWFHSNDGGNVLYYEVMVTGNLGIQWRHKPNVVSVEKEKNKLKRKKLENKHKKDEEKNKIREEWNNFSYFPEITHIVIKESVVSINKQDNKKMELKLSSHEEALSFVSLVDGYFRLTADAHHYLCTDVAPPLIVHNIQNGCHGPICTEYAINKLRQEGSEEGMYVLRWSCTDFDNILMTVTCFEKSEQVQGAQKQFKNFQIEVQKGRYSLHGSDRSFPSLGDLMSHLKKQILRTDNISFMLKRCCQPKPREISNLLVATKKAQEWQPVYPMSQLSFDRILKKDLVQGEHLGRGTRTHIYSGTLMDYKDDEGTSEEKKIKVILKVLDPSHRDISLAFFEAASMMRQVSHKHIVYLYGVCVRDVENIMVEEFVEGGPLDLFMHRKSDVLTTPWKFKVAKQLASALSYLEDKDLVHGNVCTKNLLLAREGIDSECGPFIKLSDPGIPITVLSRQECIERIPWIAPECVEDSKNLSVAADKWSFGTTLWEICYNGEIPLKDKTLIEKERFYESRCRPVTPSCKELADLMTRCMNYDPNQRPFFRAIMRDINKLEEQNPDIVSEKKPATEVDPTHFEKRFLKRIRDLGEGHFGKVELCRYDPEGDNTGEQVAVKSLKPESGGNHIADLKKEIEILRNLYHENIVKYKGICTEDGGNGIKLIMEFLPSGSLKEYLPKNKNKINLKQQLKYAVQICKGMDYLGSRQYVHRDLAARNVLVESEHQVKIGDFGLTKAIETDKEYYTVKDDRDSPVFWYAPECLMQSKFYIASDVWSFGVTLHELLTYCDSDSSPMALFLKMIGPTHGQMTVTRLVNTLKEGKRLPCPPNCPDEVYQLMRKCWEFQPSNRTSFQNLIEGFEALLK
- methodSummary: JAK phosphorylation/activation by flow cytometry, pSTAT6 staining in IL-4 stimulated U-937 cells; further: test concentration or dose not given here
- Format: cell-based
- runParameters: drug 30 min, then IL-4
Mark T for reported JAK1 pStat6-Alexa647 Signal/Background of 6 or greater; mark F for anything smaller.

Illustrative cases are given below, each with its answer.
# molecule, label
rows = [
    ("O=C(NCc1ccccc1)Nc1ccc(-c2ccccc2)cn1", "F"),
    ("O=C(Cc1ccc(-c2ccc(OCCN3CCOCC3)cc2)cn1)NCc1ccccc1 [Control B]", "F"),
    ("COc1cc2ncnc(Nc3ccc(O)cc3)c2cc1OC", "T"),
    ("O=C(Cc1ccccc1)NCc1ccc(OCc2ccccc2)cc1", "F"),
    ("O=C(Cc1ccccc1)NCc1ccc(-c2ccccc2)cn1", "F"),
]

I'd appreciate it if you could say whether O=C(CCc1ccccc1)Cc1ccc(-c2ccccc2)cn1 has JAK1 pStat6-Alexa647 Signal/Background at least equal to 6. F

I'd appreciate it if you could say whether O=S(=O)(Cc1ccc(Br)cc1)NCc1ccc(-c2ccccc2)cc1 has JAK1 pStat6-Alexa647 Signal/Background at least equal to 6. F

I'd appreciate it if you could say whether c1ccc(CCSCc2ccc(-c3ccccc3)cc2)cc1 has JAK1 pStat6-Alexa647 Signal/Background at least equal to 6. F

I'd appreciate it if you could say whether O=C(Cc1ccc(-c2ccccc2)cc1)NCc1cccc(F)c1 [Control A] has JAK1 pStat6-Alexa647 Signal/Background at least equal to 6. F

I'd appreciate it if you could say whether O=C(Cc1ccccc1)NCc1ccc(-c2ccccc2)cc1 has JAK1 pStat6-Alexa647 Signal/Background at least equal to 6. T
